I'd appreciate it if you could supply pEC50 values for the items below.
- tested_target: T1, Scrambled Y46,48,51(SO3) PSGL-1(42-62) biotin peptide (sulfotyrosine at peptide positions 5, 7 and 10; C-terminal Lys-biotin)
- T1 construct: also called scrambled sulfated peptide: biotin
- T1 peptide: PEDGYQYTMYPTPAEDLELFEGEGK
- assay_text: ELISA, immobilized biotin peptide
Give bare numbers, as −log10 of the molar value.

Previously resolved entries follow.
{"binder": "2E12 (antibody, V domains shown, Mouse hybridoma mAb; only variable domains given) VH: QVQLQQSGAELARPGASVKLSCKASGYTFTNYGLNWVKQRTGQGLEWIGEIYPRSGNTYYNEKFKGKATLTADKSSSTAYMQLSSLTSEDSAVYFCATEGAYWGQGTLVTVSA VL: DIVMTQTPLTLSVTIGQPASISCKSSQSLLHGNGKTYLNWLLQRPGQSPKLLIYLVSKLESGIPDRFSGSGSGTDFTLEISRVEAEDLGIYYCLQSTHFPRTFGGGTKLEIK", "attribute_measured": "pEC50", "quantitative_readout": 7.52}
{"binder": "05D01 (antibody, V domains shown) VH: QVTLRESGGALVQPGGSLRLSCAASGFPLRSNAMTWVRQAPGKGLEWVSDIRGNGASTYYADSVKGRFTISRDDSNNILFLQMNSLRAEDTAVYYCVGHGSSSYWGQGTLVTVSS VL: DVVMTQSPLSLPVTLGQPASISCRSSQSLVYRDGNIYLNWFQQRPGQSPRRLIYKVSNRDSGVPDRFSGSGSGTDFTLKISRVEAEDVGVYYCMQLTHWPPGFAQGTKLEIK", "attribute_measured": "pEC50", "quantitative_readout": 8.87}
{"binder": "5E12 (antibody, V domains shown, Mouse hybridoma mAb; only variable domains given) VH: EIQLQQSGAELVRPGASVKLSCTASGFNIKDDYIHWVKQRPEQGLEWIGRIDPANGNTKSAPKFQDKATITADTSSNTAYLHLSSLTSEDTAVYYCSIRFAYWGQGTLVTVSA VL: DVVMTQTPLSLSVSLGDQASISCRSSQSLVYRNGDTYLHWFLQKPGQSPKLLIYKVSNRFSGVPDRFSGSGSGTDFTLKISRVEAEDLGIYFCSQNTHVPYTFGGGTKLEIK", "attribute_measured": "pEC50", "quantitative_readout": 7.49}
{"binder": "19I01 (antibody, V domains shown, From mouse immunisation; only variable domains given; also called 19101) VH: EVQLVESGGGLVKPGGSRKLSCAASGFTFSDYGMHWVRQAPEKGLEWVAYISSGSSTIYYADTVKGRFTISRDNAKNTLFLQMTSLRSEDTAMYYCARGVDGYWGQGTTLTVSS VL: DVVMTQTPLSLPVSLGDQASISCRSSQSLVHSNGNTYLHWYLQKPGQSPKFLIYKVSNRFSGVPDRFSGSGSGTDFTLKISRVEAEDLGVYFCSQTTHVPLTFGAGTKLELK", "attribute_measured": "pEC50", "quantitative_readout": 6.70}

Could you now look at the following binder, please?
### Prompt Answer with the recorded pEC50 of 18L13 (antibody, V domains shown, Mouse hybridoma mAb; only variable domains given) VH: EVQLQQSGAELVRPGASVKLSCTASGFNIKDDFMHWVKQRPEQGLEWIGRIDPASGKTEYVPKFQDKATLTADTSSNTAYLQLSSLTSEDTAVYYCARRIAYWGQGTLVTVSA VL: DVVMTQTPLTLSVTIGQPASISCKSSQSLLHSNGKTYLNWLLQRPGQSPKLLIYLVSKLESGLPDRFSGSGSGTDFSLKISRVEAEDLGVYYCLQTTHFPQTFGGGTKLEIK only.
### Response 8.58
